TARGET OR TEST SYSTEM: P450 1B1 (Homo sapiens, UniProt Q16678, L432V)
Sequence (Q16678 1-543 L432V): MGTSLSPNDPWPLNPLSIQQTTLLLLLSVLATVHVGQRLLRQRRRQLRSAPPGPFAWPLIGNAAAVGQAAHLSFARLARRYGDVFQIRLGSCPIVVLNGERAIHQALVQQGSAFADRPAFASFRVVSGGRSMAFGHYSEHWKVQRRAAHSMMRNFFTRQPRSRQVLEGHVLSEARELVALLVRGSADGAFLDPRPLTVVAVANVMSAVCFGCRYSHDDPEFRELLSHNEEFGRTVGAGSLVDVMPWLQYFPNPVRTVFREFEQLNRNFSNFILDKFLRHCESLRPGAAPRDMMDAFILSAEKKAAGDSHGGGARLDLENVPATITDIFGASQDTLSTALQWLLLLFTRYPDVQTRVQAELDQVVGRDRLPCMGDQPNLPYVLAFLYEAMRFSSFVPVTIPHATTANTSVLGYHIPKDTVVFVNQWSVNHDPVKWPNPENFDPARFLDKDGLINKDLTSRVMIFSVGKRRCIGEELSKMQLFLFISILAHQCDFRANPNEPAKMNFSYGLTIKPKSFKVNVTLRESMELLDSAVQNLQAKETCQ
ASSAY EXPLANATION: Spectral binding titration with purified P450 1B1
TEST SETTINGS: P450 1B1, Reverse Type I spectra
REPORTED PROPERTY: ΔAmax/ Ks

>>> obs_value("OC1C=C2c3ccccc3-c3cccc(c32)C1O (centres unmarked) [FA-2,3-diol, 2,3-dihydroxy-2,3-dihydrofluoranthene]")
0.0058
>>> obs_value("Cc1cc2ccccc2c2ccc3ccccc3c12 [5-methylchrysene]")
0.0064
>>> obs_value("Cc1c2c(c(C)c3ccccc13)C(O)C(O)c1ccccc1-2 (centres unmarked) [7,12-DMBA-5,6-diol]")
0.0012
>>> obs_value("c1ccc2c(c1)ccc1ccc3ccccc3c12 [B[c]Phe, benzo[c]phenanthrene]")
0.016
>>> obs_value("O=[N+]([O-])c1ccc2ccc3cccc4ccc1c2c34 [1-nitropyrene]")
0.026
